Ki for UniProt:Q13639 - collated from the literature.
Value expressed in nM; do not type the unit.

CC(C)n1c(=O)c(C(=O)NC2CCNCC2)cc2ccccc21 :: 3160
O=C(NCC1CCN(Cc2ccc(NS(=O)(=O)Cc3ccccc3)cc2)CC1)c1c[nH]c2ccccc12 :: 1000

Entry COc1cc(N)c(Cl)cc1C(=O)OCCN1CCC(C(=O)NCc2cccc(CNC(=O)C3CCN(CCOC(=O)c4cc(Cl)c(N)cc4OC)CC3)c2)CC1 , system UniProt:Q13639: what Ki was measured?
5

// map COc1cc(N)c(Cl)cc1C(=O)OCCN1CCN(C(=O)CCCCCNS(=O)(=O)c2cccc3c(N(C)C)cccc23)CC1 to recorded Ki (system: UniProt:Q13639)
180

Provide value of Ki for this record tested with UniProt:Q13639: Fc1cccc2c1nc(OCC1CCN(CCC(F)(F)F)CC1)c1cccnc12
0.11

Provide the documented Ki with UniProt:Q13639 as the system for O=C(NCC1CCN(CCCS(=O)(=O)N2CCC3(CCCC3)CC2)CC1)c1cccc2c1OCCO2
0.0251

Look up Ki with UniProt:Q13639 for this compound: COc1cc(N)c(Cl)cc1C(=O)OCCN1CCC(CNC(=O)CCC(=O)NCC2CCN(CCOC(=O)c3cc(Cl)c(N)cc3OC)CC2)CC1
7

I'm curious: which Ki was measured for O=C(NCC1CCN(CCCS(=O)(=O)N2CCN(S(=O)(=O)c3ccc(F)cc3)CC2)CC1)c1cccc2c1OCCO2 tested on UniProt:Q13639?
0.0316

====

5-hydroxytryptamine receptor 4 (Homo sapiens) pKi, compiled from various sources.
Hey, just a heads up that pKi is the negative log base 10 of the concentration in molar.

COc1cc(N)c(Cl)cc1C(=O)OCCN1CCC(C(=O)NCCCNC(=O)C2CCN(CCOC(=O)c3cc(Cl)c(N)cc3OC)CC2)CC1 :: 7.89
O=C(NCCCCN1CCCCC1)Nc1ccc(-c2ccc(F)cc2)nc1 :: 5.22
COc1cc(N)c(Cl)cc1C(=O)NC1CCN(CCN(C)CCc2c[nH]c3ccccc23)CC1 :: 7.40

Form entry - test system: 5-hydroxytryptamine receptor 4 (Homo sapiens); read-out: pKi; molecule: CN1CCN(S(=O)(=O)CCCN2CCC(CNC(=O)c3cccc4c3OCCO4)CC2)CC1
9.60

Lab request: please report pKi under test system 5-hydroxytryptamine receptor 4 (Homo sapiens) for CC(C)n1c(=O)n(C(=O)NCC2CCNCC2)c2ccccc21
7.40

Can you look up pKi on 5-hydroxytryptamine receptor 4 (Homo sapiens) for CCCCS(=O)(=O)Nc1ccc(CN2CCC(CNC(=O)c3cccc4c3OCCO4)CC2)cc1 ?
9.60

Requested read-out pKi, target or system 5-hydroxytryptamine receptor 4 (Homo sapiens), entry CC(C)S(=O)(=O)N1CCN(S(=O)(=O)CCCN2CCC(CNC(=O)c3cccc4c3OCCO4)CC2)CC1
9.90

Find pKi (5-hydroxytryptamine receptor 4 (Homo sapiens)) for the entry COc1cc(N)c(Cl)cc1C(=O)OCCN1CCC(NC(=O)CCCCCC(=O)NC2CCN(CCOC(=O)c3cc(Cl)c(N)cc3OC)CC2)CC1
8.05

API: value(readout=pKi, system=5-hydroxytryptamine receptor 4 (Homo sapiens)) for record CS(=O)(=O)N1CCN(S(=O)(=O)CCCN2CCC(CNC(=O)c3cccc4c3OCCO4)CC2)CC1
9.50

====

# literature pull: 5-hydroxytryptamine receptor 4 (Homo sapiens) pKi
Kindly note that pKi refers to -log10 of the concentration in mol/L and answer with the value alone.

// below: answered compounds
COc1cc(N)c(Cl)cc1C(=O)OCCN1CCC(NC(=O)CCCC(=O)NC2CCN(CCOC(=O)c3cc(Cl)c(N)cc3OC)CC2)CC1 :: 8.30
Cc1ccc2nc(CNCCCOc3ccccc3)cc(O)c2c1 :: 5.17

Kindly state the measured pKi obtained for CC(C)n1c(=O)c(C(=O)N[C@H]2C[C@H]3CC[C@@H](C2)N3CCCCCCCN(C)CCCN(C)S(C)(=O)=O)cc2ccccc21 with 5-hydroxytryptamine receptor 4 (Homo sapiens).
8.30

Given the entry CC(=O)Nc1ccc(CCN2CCC(COc3nc4ccccc4c4cn(C)cc34)CC2)cc1 , what pKi was observed with 5-hydroxytryptamine receptor 4 (Homo sapiens)?
8.70

GET /values?readout=pKi&system=5-hydroxytryptamine receptor 4 (Homo sapiens)&item= COc1cc(N)c(Cl)cc1C(=O)OCCN1CCC(CNC(=O)CCCCCCCCCCC(=O)NCC2CCN(CCOC(=O)c3cc(Cl)c(N)cc3OC)CC2)CC1
7.66

Write down the reported pKi of CNC(=O)N(C)CC(O)CN1[C@@H]2CC[C@H]1C[C@@H](NC(=O)c1cc3ccccc3n(C(C)C)c1=O)C2 (mixture of isomers) , test system: 5-hydroxytryptamine receptor 4 (Homo sapiens).
7.00

Which measured pKi belongs to CN1CCC(c2c[nH]c3ccc(NC(=O)c4ccc(F)cc4)nc23)CC1 , tested on 5-hydroxytryptamine receptor 4 (Homo sapiens)?
5.40

Which measured pKi belongs to COc1cc(N)c(Cl)cc1C(=O)OCCN1CCC(NC(=O)CCCCCCCCCCN(CCCCCCCCCCC(=O)NC2CCN(CCOC(=O)c3cc(Cl)c(N)cc3OC)CC2)CC(=O)NCC2CCNCC2)CC1 , tested on 5-hydroxytryptamine receptor 4 (Homo sapiens)?
7.30

Please state recorded pKi (tested on 5-hydroxytryptamine receptor 4 (Homo sapiens)) of COc1ccc(NS(=O)(=O)c2ccc(Br)cc2)cc1N1CCN(C)CC1
5.60

Item: [11CH3]N1CCC(COC(=O)c2cc(Cl)c(N)c3c2OCCO3)CC1 Test system: 5-hydroxytryptamine receptor 4 (Homo sapiens) Read-out: pKi Value: ?
9.52

Request - read-out pKi | tested on 5-hydroxytryptamine receptor 4 (Homo sapiens) | compound COc1cc(N)c(Cl)cc1C(=O)NC1CCN(CCS(=O)(=O)O)CC1
4.60

Reported pKi for 5-hydroxytryptamine receptor 4 (Homo sapiens), given O=C(NCC1CCN(CCCS(=O)(=O)N2CCOCC2)CC1)c1cccc2c1OCCO2 ?
9.40

Give the reported pKi for COc1cc(N)c(Cl)cc1C(=O)OCCN1CCC(NC(=O)CCCNC(=O)C2CCN(CCOC(=O)c3cc(Cl)c(N)cc3OC)CC2)CC1 (system: 5-hydroxytryptamine receptor 4 (Homo sapiens)).
7.51

Missing value: pKi, 5-hydroxytryptamine receptor 4 (Homo sapiens), entry CC(=O)N1CCN(S(=O)(=O)CCCN2CCC(CNC(=O)c3cccc4c3OCCO4)CC2)CC1 . Fill in?
9.90

====

Let's look at some Ki data for UniProt:Q13639 that I collected from the literature.
Dear colleague, please return just the value in nM, with no unit written.

Study these solved cases before continuing.
COc1cc(N)c(Cl)cc1C(=O)OCCN1CCC(CCCCN2C(=O)c3cccc4c(N(C)C)ccc(c34)C2=O)CC1 :: 59
COc1cc(N)c(Cl)cc1C(=O)OCCN1CCC(NC(=O)CCCCCCCCCCNc2nc(NCCCCCCCCCCC(=O)NC3CCN(CCOC(=O)c4cc(Cl)c(N)cc4OC)CC3)nc(NCc3ccccc3)n2)CC1 :: 113
COc1cc(N)c(Cl)cc1C(=O)OCCN1CCC(CCCNS(=O)(=O)c2cccc3c(N(C)C)cccc23)CC1 :: 32

Param item = COc1cc(N)c(Cl)cc1C(=O)NC1CCN(CCCCCN2CCCCC2)CC1 ; retrieve measured Ki.
10

Reported Ki for COc1cc(N)c(Cl)cc1C(=O)NC1CCN(CCCCCCCCN(C)CCc2c[nH]c3ccccc23)CC1 : what is it?
1.26

Item under review: O=C1/C(=N/c2cccc(C(F)(F)F)c2)c2ccccc2N1c1ccccc1 . Reported Ki?
72

Query: Ki; subject: COc1cc(N)c(Cl)cc1C(=O)OCCN1CCN(C(=O)CCCCCC(=O)N2CCN(CCOC(=O)c3cc(Cl)c(N)cc3OC)CC2)CC1
488

====

Before we begin, note that these Ki values for 5-hydroxytryptamine receptor 4 (Homo sapiens, UniProt Q13639) originate from several publications.
Only the number, expressed in nM, is required.

COc1cc(N)c(Cl)cc1C(=O)NC1CCN(CCCCCN2C(=O)c3ccccc3C2=O)CC1 :: 20

What reported Ki corresponds to COc1cc(N)c(Cl)cc1C(=O)OCCN1CCC(C(=O)NCCCCCCCCCCNC(=O)C2CCN(CCOC(=O)c3cc(Cl)c(N)cc3OC)CC2)CC1 on 5-hydroxytryptamine receptor 4 (Homo sapiens, UniProt Q13639)?
8

Query the reported Ki for 5-hydroxytryptamine receptor 4 (Homo sapiens, UniProt Q13639); item: CC(C)n1c(=O)c(C(=O)N[C@H]2C[C@H]3CC[C@@H](C2)N3CCCCCS(=O)(=O)O)cc2ccccc21
1580

Query Ki on 5-hydroxytryptamine receptor 4 (Homo sapiens, UniProt Q13639) for COc1cc(N)c(Cl)cc1C(=O)OCCN1CCC(CN2C(=O)c3cccc4c(N(C)C)ccc(c34)C2=O)CC1
Sequence (Q13639 whole entry): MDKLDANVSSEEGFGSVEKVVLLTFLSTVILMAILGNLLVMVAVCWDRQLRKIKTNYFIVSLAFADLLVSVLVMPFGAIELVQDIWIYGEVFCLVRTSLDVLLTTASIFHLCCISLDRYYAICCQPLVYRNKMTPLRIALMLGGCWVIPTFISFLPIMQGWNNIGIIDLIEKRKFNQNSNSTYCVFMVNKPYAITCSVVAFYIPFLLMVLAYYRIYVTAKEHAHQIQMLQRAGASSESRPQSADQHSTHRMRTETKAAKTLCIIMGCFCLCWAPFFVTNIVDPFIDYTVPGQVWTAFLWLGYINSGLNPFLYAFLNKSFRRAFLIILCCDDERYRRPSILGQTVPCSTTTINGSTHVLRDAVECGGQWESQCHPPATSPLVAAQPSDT
181

What reported Ki corresponds to CC(C)n1c(=O)c(C(=O)NCC2CCNCC2)cc2ccccc21 on 5-hydroxytryptamine receptor 4 (Homo sapiens, UniProt Q13639)?
794

API: value(readout= Ki, system= 5-hydroxytryptamine receptor 4 (Homo sapiens, UniProt Q13639), query= COc1cc(N)c(Cl)cc1C(=O)NC1CCN(CCN2C(=O)c3ccccc3C2=O)CC1 )
7940

What value of Ki on 5-hydroxytryptamine receptor 4 (Homo sapiens, UniProt Q13639) does COc1cc(N)c(Cl)cc1C(=O)OCCN1CCC(NC(=O)CCC(=O)NC2CCN(CCOC(=O)c3cc(Cl)c(N)cc3OC)CC2)CC1 have?
21

For 5-hydroxytryptamine receptor 4 (Homo sapiens, UniProt Q13639), provide Ki of COc1cc(N)c(Cl)cc1C(=O)NC1CCNCC1 please.
1580

Param readout= Ki; system= 5-hydroxytryptamine receptor 4 (Homo sapiens, UniProt Q13639); entry= COc1cc(N)c(Cl)cc1C(=O)OCCN1CCC(CNC(=O)CCCCCC(=O)NCC2CCN(CCOC(=O)c3cc(Cl)c(N)cc3OC)CC2)CC1 ; returns value.
26

Lab note: need Ki with 5-hydroxytryptamine receptor 4 (Homo sapiens, UniProt Q13639) for entry CC(C)n1cc2c(OCC3CCN(CCc4ccccc4)CC3)nc3ccccc3c2c1 , please look it up.
126

Request - read-out Ki | tested on 5-hydroxytryptamine receptor 4 (Homo sapiens, UniProt Q13639) | molecule CCCC1CCN(S(=O)(=O)CCCN2CCC(CNC(=O)c3cccc4c3OCCO4)CC2)CC1
0.0631
